Reference source: patent US7432242B2

Biological target: RGS4 (Homo sapiens, UniProt P49798)
Sequence (P49798 whole entry, species assumed): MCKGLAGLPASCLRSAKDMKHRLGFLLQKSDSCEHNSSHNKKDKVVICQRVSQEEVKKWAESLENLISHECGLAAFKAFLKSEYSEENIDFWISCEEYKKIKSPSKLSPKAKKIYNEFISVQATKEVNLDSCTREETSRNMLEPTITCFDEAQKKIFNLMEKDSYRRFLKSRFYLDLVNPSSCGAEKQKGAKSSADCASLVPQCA
Test: Steady-state GTPase assay, RGS4-stimulated, CHO cell membranes expressing α2a AR
Settings: steady-state membrane GTPase assay
Where a SMILES comes first, the peptide text is derived from it.
EXPERIMENTAL ENDPOINT: pIC50
Scale: negative log10 of molar concentration, which is what pIC50 denotes.

query: Can you share its pIC50? I mean this compound: CC[C@H](C)[C@@H]1NC(=O)CNC(=O)[C@H]([C@@H](C)O)NC(=O)[C@@H](NC(=O)[C@H](CCCCN)NC(=O)[C@@H](NC(C)=O)C(C)C)CSCCSC[C@@H](C(=O)N[C@@H](CCC(=O)O)C(N)=O)NC1=O [JMRAc(Et)] (HELM PEPTIDE1{[ac].V.K.C.T.G.I.C.E.[am]}|CHEM1{[C(C[*:2])[*:1]]}$PEPTIDE1,CHEM1,4:R3-1:R1|PEPTIDE1,CHEM1,8:R3-1:R2$$$V2.0)
result: 4.06

query: Can you share its pIC50? I mean this compound: CC[C@H](C)[C@@H]1NC(=O)CNC(=O)[C@H]([C@@H](C)O)NC(=O)[C@@H](NC(=O)[C@H](CCCCN)NC(=O)[C@@H](NC(C)=O)C(C)C)CSCSC[C@@H](C(=O)N[C@@H](CCC(=O)O)C(N)=O)NC1=O [Yja] (HELM PEPTIDE1{[ac].V.K.C.T.G.I.C.E.[am]}|CHEM1{[C([*:1])[*:2]]}$PEPTIDE1,CHEM1,4:R3-1:R1|PEPTIDE1,CHEM1,8:R3-1:R2$$$V2.0)
result: 4.10

###

Target: RGS4 (Homo sapiens, UniProt P49798)
Assay: Steady-state GTPase assay, RGS4-stimulated, CHO cell membranes expressing α2a AR
Details: steady-state membrane GTPase assay
Procedure: In some embodiments, the membrane assay comprises a GTPase assay (See e.g, Berman et al., J. Biol. Chem., 271:27209 [1996] and Berman et al., Cell 86:445 [1996]). […] This example describes a novel method of assaying for inhibitors of RGS-mediated GTPase Acceleration. […] RGS-mediated enhancement of receptor-stimulated [^35S]GTPγS binding was determined in CHO cell membranes expressing high densities (10-20 pmol/mg) of receptor. […]
Where a SMILES comes first, the peptide text is derived from it.
EXPERIMENTAL ENDPOINT: IC50

query: Can you share its IC50? I mean this compound: CC[C@H](C)[C@@H]1NC(=O)CNC(=O)[C@H]([C@@H](C)O)NC(=O)[C@@H](NC(=O)[C@H](CCCCN)NC(=O)[C@@H](NC(C)=O)C(C)C)CCC(=O)NCCCC[C@@H](C(=O)N[C@@H](CCC(=O)O)C(N)=O)NC1=O [YJ14(lactam)] (HELM PEPTIDE1{[ac].V.K.E.T.G.I.K.E.[am]}$PEPTIDE1,PEPTIDE1,4:R3-8:R3$$$V2.0)
result: 260 µM

query: Can you share its IC50? I mean this compound: CC[C@H](C)[C@@H]1NC(=O)CNC(=O)[C@H]([C@@H](C)O)NC(=O)[C@@H](NC(=O)[C@H](CCCCN)NC(=O)[C@@H](NC(C)=O)C(C)C)CSSC[C@@H](C(=O)N[C@@H](CCC(=O)O)C(N)=O)NC1=O [Yjb] (HELM PEPTIDE1{[ac].V.K.C.T.G.I.C.E.[am]}$PEPTIDE1,PEPTIDE1,4:R3-8:R3$$$V2.0)
result: 26 µM

query: Can you share its IC50? I mean this compound: CC[C@H](C)[C@@H]1NC(=O)CNC(=O)[C@H]([C@@H](C)O)NC(=O)[C@@H](NC(=O)[C@H](CCCCN)NC(=O)[C@@H](NC(C)=O)C(C)C)CCCNC(=O)CC[C@@H](C(=O)N[C@@H](CCC(=O)O)C(N)=O)NC1=O [YJ13(lactam)] (HELM PEPTIDE1{[ac].V.K.[Orn].T.G.I.E.E.[am]}$PEPTIDE1,PEPTIDE1,4:R3-8:R3$$$V2.0)
result: 25 µM
